# assay text: AUClast in Sprague-Dawley rat at 1 mg/kg, iv measured upto 24 hrs by LC-MS/MS analysis
# Assay type: ADME, organism-based
# Set-up: route intravenous, dose 1 mg/kg, time <=24
# measurement parameters: in vivo
measured endpoint: AUC(0-t) at 24 h (ng·h/mL)
Form entry: value (ng·h/mL) — number only.

Give me measured AUC(0-t) at 24 h, please, for this compound: C=CC(=O)Nc1ccccc1Nc1ccc2c(C(=O)c3cc(OC)cc(OC)c3)c[nH]c2n1
277

----------
# assay text: Half life in Sprague-Dawley rat at 1 mg/kg, iv measured upto 24 hrs by LC-MS/MS analysis
# Format: ADME, organism-based
# measurement parameters: in vivo
measured endpoint: half-life

Give me measured half-life, please, for this compound: C=CC(=O)Nc1ccccc1Nc1ccc2c(C(=O)c3cc(OC)cc(OC)c3)c[nH]c2n1
51.6 min
